Published IC50 for UniProtKB Q96SW2, assembled from different documents, is shown next.
test-readout: IC50

molecule: O=C1Cc2cccc(Oc3ccccc3)c2CC(=O)N1
test-readout: IC50
measured-value: > 100000 nM
//
molecule: Cc1ncoc1-c1ccc2c(c1)C(=O)NC(=O)C2
test-readout: IC50
measured-value: > 100000 nM
//
molecule: CC1(c2ccc(NC(=O)OC3CN(c4cc(F)c(C5CCC(=O)NC5=O)c(F)c4)C3)cn2)CC1 (stereo not drawn)
test-readout: IC50
measured-value: 100 to 1000 nM
//
molecule: O=C1CCC(c2c(F)cc(N3CC(OC(=O)NCC(F)(F)F)C3)cc2F)C(=O)N1 (stereo not drawn)
test-readout: IC50
measured-value: 100 to 1000 nM
//
molecule: O=C1CCC(c2c(F)cc(N3CC(NC(=O)CC4CCC4)C3)cc2F)C(=O)N1 (stereo not drawn)
test-readout: IC50
measured-value: 100 to 1000 nM
//
molecule: NCCCC#Cc1ccc(Oc2cccc3c2C(=O)NC(=O)C3=O)cc1
test-readout: IC50
measured-value: 10000 to 30000 nM

* * *

pIC50: −log10 of the molar value.
Published pIC50 for CRBN-DDB1 (Homo sapiens, UniProt Q96SW2), assembled from different documents, is shown next.
test-readout: pIC50

compound: O=C1Cc2ccc(Br)cc2C(=O)N1
measured-value: < 4.00
--
compound: O=C1CC2(Cc3ccccc3C2)C(=O)N1
measured-value: < 4.00
--
compound: O=C1CCC(N2Cc3ccc(CNC(=O)Nc4cc(Cl)cc(Cl)c4)cc3C2=O)C(=O)N1 (stereo not shown)
measured-value: 6.23
--
compound: NCCCCCCCC#Cc1cccc(Oc2cccc3c2C(=O)NC(=O)C3)c1
measured-value: 4.00 to 4.52
--
compound: Cc1ccccc1-c1cccc2c1C(=O)NC(=O)C2
measured-value: 4.52 to 5.00
--
compound: NCCCCCCCCCc1ccc(Oc2cccc3c2C(=O)NC(=O)C3)cc1
measured-value: > 5.00
--
compound: O=C1CCC(N2Cc3ccc(CNC(=O)Nc4ccccc4)cc3C2=O)C(=O)N1 (stereo not shown)
measured-value: 5.98
--
compound: Cc1c(Cl)cc(NC(=O)NCc2ccc3c(c2)C(=O)N(C2CCC(=O)NC2=O)C3)cc1OCCN1CCOCC1 (stereo not shown)
measured-value: 6.58
--
compound: O=C1CCC(N2Cc3ccc(CNC(=O)Nc4cccc(-c5ncc[nH]5)c4)cc3C2=O)C(=O)N1 (stereo not shown)
measured-value: 6.57
--
compound: O=C1CCC(N2Cc3ccc(COC(=O)Nc4cc(OC(F)(F)F)ccc4F)cc3C2=O)C(=O)N1 (stereo not shown)
measured-value: 5.96 to 6.30
--
compound: O=C1CCC(N2Cc3ccc(CNC(=O)Nc4cccc(Cl)c4)cc3C2=O)C(=O)N1 (stereo not shown)
measured-value: 6.40
--
compound: O=C1CCC(c2c(F)cc(N3CC(OC(=O)N[C@H]4CCOC4)C3)cc2F)C(=O)N1 (stereo partly shown)
measured-value: 6.00 to 7.00
--
compound: O=C1CC2(C(=O)N1)C(=O)Nc1ccccc12 (stereo not shown)
measured-value: < 4.00
--
compound: Cc1c(Cl)cc(NC(=O)NCc2ccc3c(c2)C(=O)N(C2CCC(=O)NC2=O)C3)cc1CN1CCC(N2CCOCC2)CC1 (stereo not shown)
measured-value: 6.71
--
compound: Nc1cccc2c1C(=O)NC(=O)C2
measured-value: 4.52 to 5.00
--
compound: O=C1CCC(c2c(F)cc(N3CC(NC(=O)Nc4cc(Cl)cc(OC(F)F)c4)C3)cc2F)C(=O)N1 (stereo not shown)
measured-value: 6.00 to 7.00
--
compound: O=C1CCC(c2c(F)cc(N3CC(OC(=O)Nc4cccc(OC(F)F)c4)C3)cc2F)C(=O)N1 (stereo not shown)
measured-value: 6.00 to 7.00
--
compound: Cc1cc(F)cc(CC(=O)NC2CN(c3cc(F)c(C4CCC(=O)NC4=O)c(F)c3)C2)c1 (stereo not shown)
measured-value: 6.00 to 7.00
--
compound: O=C1NC(=O)C(F)(F)c2cccc(C(=O)N3CCc4ccccc43)c21
measured-value: < 4.00
--
compound: O=C1CCC(c2c(F)cc(N3CC(NC(=O)Cc4ccc(F)c(F)c4)C3)cc2F)C(=O)N1 (stereo not shown)
measured-value: 6.00 to 7.00
--
compound: CCc1cnc(NC(=O)NCc2ccc3c(c2)C(=O)N(C2CCC(=O)NC2=O)C3)s1 (stereo not shown)
measured-value: 6.77
--
compound: O=C1CCC(c2c(F)cc(N3CC(NC(=O)Cc4cc(F)cc(F)c4)C3)cc2F)C(=O)N1 (stereo not shown)
measured-value: 6.00 to 7.00
--
compound: Nc1ccccc1Oc1cccc2c1C(=O)NC(=O)C2
measured-value: 4.00 to 4.52
--
compound: CC(=O)NCc1cccc(Oc2cccc3c2C(=O)NC(=O)C3)c1
measured-value: 4.52 to 5.00
--
compound: N#Cc1ccc(CC(=O)NC2CN(c3cc(F)c(C4CCC(=O)NC4=O)c(F)c3)C2)c(Cl)c1 (stereo not shown)
measured-value: 6.00 to 7.00
--
compound: O=C1Cc2cccc(Oc3ccccc3)c2C(=O)N1
measured-value: > 5.00
--
compound: Cc1ncc(NC(=O)NCc2ccc3c(c2)C(=O)N(C2CCC(=O)NC2=O)C3)cc1Cl (stereo not shown)
measured-value: 5.82
--
compound: Cc1ncoc1-c1cccc2c1C(=O)NC2=O
measured-value: < 4.00
